Molecular target: HLA-A*26:01
Test: IEDB peptide-MHC binding, purified MHC/competitive/radioactivity; filed as Kd, often an IC50 or EC50 that approximates it; bounds were set here for any values at or beyond the usual limits of such assays
Settings: source organism: Dengue virus 4 Dominica/814669/1981
MEASURE: pKd
In textbook form, pKd equals minus log to base ten of the concentration in mol/L.

# lookup: `EVLTLATGPI` on HLA-A*26:01, pKd = 4.98

* * *

Molecular target: HLA-A*26:01
Assay: IEDB peptide-MHC binding, purified MHC/direct/fluorescence; filed as Kd, often an IC50 or EC50 that approximates it; bounds were set here for any values at or beyond the usual limits of such assays
Details: source organism: Corynebacterium glutamicum
MEASURE: Kd

For `ATFSRPGSL` the sequence record lists Kd as ≥ 20 µM
